# Experimental System: recombinant human PIM1 (Homo sapiens (Human))
# Measurement Notes: PIM-1 kinase activity in cell-free in vitro assay
# Type: biochemical
# Stated Conditions: 500 nM compound, cell-free assay; read-out: PIM-1: % inh 500 nM
Recorded Metric: inhibition at 0.5 µM (%)

Worked cases, answers included:
>  <Molecule>
O=C(O)c1ccc2c(c1)nc(Nc1ccc(OC(F)(F)F)cc1)c1ccncc12

>  <inhibition at 0.5 µM [%]>
68.3

$$$$
>  <Molecule>
CN1CCN(C(=O)c2ccc3c(c2)nc(Nc2cccc(Cl)c2)c2ccncc23)CC1

>  <inhibition at 0.5 µM [%]>
-28.4

$$$$
>  <Molecule>
Nc1ncc2c(n1)c(Nc1cccc(C(F)(F)F)c1)nc1cc(C(=O)O)ccc12

>  <inhibition at 0.5 µM [%]>
74.3

$$$$
>  <Molecule>
NCCNC(=O)c1ccc2c(c1)nc(Nc1cccc(Cl)c1)c1ccncc12

>  <inhibition at 0.5 µM [%]>
-19.8

$$$$
>  <Molecule>
O=C(O)c1ccc2c(c1)nc(NCCn1cccc1)c1ccncc12

>  <inhibition at 0.5 µM [%]>
74.5

$$$$
>  <Molecule>
CNc1ncc2c(n1)c(N(C)c1ccccc1)nc1cc(C(=O)O)ccc12

>  <inhibition at 0.5 µM [%]>
86.6

$$$$
>  <Molecule>
N#Cc1ccc2c(c1)nc(NCC(F)(F)F)c1ccsc12

>  <inhibition at 0.5 µM [%]>
-32

$$$$
>  <Molecule>
O=C(O)c1ccc2c(c1)nc(Nc1ccccc1)c1nc(NC3CCNCC3)ncc12

>  <inhibition at 0.5 µM [%]>
-2.53

$$$$
>  <Molecule>
CN1CCCCC1CNc1nc2cc(C#N)ccc2c2cscc12 (centres unmarked)

>  <inhibition at 0.5 µM [%]>
46.4

$$$$
>  <Molecule>
O=C(O)c1ccc2c(c1)nc(NC1CC1)c1nc(Nc3cccc(F)c3F)ncc12

>  <inhibition at 0.5 µM [%]>
71.7

$$$$

P = CONC(=O)c1ccc2c(c1)nc(N1CCN(C)CC1)c1ccsc12
Q = CN(C)CCNc1nc2cc(-c3nnn[nH]3)ccc2c2cscc12
# returns the entry with the larger inhibition at 0.5 µM; inputs P and Q Lab note: record the label of whichever item you select. Q

a = Cc1cc2c(cc1OCc1ccccc1)[nH]c(=O)c1ccncc12
b = CN1CCN(c2nc3cc(C#N)ccc3c3sccc23)CC1
# returns the entry with the larger inhibition at 0.5 µM; inputs a and b Lab note: record the label of whichever item you select. b

P = Cc1nn(C)c(C)c1NC(=O)NCc1ccc2c(c1)nc(Nc1cccc(F)c1)c1ccsc12
Q = CCOc1ncc2c(n1)c(Nc1cccc(C(F)(F)F)c1)nc1cc(C(=O)O)ccc12
R = O=C(O)c1ccc2c(c1)nc(Nc1cccc(Cl)c1)c1cnccc12
S = CONc1nc2cc(C(=O)O)ccc2c2cnccc12
Exam item: list the entries in increasing order of inhibition at 0.5 µM. Answer by listing the labels in the order asked for. Q, P, S, R

----------
# Experimental System: recombinant human PIM1 (Homo sapiens (Human))
# Measurement Notes: PIM-1 kinase activity in cell-free in vitro assay
# Assay type: biochemical
# Stated Conditions: 500 nM compound, cell-free assay; read-out: PIM-1: % inh 500 nM
Recorded Metric: inhibition at 0.5 µM (%)

Worked cases, answers included:
>  <Molecule>
N#Cc1ccc2c(c1)nc(Oc1ccc3ncccc3c1)c1ccsc12

>  <Experimental System>
recombinant human PIM1 (Homo sapiens (Human))

>  <Unit Of Measurement>
%

>  <inhibition at 0.5 µM>
-22.2

$$$$
>  <Molecule>
O=C(O)c1ccc2c(c1)nc(Nc1cc(-c3ccccc3)[nH]n1)c1ccncc12

>  <Experimental System>
recombinant human PIM1 (Homo sapiens (Human))

>  <Unit Of Measurement>
%

>  <inhibition at 0.5 µM>
56

$$$$
>  <Molecule>
C#Cc1cccc(Nc2nc3cc(C(=O)O)ccc3c3cnc(NC4CCNCC4)nc23)c1

>  <Experimental System>
recombinant human PIM1 (Homo sapiens (Human))

>  <Unit Of Measurement>
%

>  <inhibition at 0.5 µM>
29

$$$$
>  <Molecule>
Cc1ccccc1Nc1nc2cc(C(=O)O)ccc2c2cnc(NC3CC3)nc12

>  <Experimental System>
recombinant human PIM1 (Homo sapiens (Human))

>  <Unit Of Measurement>
%

>  <inhibition at 0.5 µM>
31.9

$$$$

1 = CN1CCC(N(C)c2nc3cc(C#N)ccc3c3sccc23)C1 (stereo not drawn)
2 = CN1CCC(Nc2nc3cc(-c4nnn[nH]4)ccc3c3sccc23)CC1
# returns the entry with the larger inhibition at 0.5 µM; inputs 1 and 2 Lab note: record the label of whichever item you select. 2

----------
# Experimental System: recombinant human PIM1 (Homo sapiens (Human), UniProt P11309)
# Sequence (P11309 whole entry): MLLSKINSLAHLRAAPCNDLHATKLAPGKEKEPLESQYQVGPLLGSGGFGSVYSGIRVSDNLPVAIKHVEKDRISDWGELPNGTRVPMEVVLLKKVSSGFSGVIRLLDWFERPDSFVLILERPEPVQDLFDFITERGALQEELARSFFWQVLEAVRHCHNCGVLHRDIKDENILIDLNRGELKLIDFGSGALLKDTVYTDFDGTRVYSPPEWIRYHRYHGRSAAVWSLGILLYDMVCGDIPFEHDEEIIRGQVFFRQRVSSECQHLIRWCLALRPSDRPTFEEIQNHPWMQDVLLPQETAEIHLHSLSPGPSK
# Measurement Notes: PIM-1 kinase activity in cell-free in vitro assay
# Format: biochemical
# Stated Conditions: Table 45
IC50 for assorted compounds

Worked cases, answers included:
>  <Compound>
c1ccc(CCNc2nc3c(-c4nc[nH]n4)cccc3c3cnccc23)cc1

>  <IC50>
< 100 nM

$$$$
>  <Compound>
Fc1ccc(Nc2nc3c(-c4nnc[nH]4)cccc3c3cnccc23)cc1

>  <IC50>
< 100 nM

$$$$
>  <Compound>
NC(=O)c1cccc2c1nc(Nc1ccc(F)cc1)c1ccncc12

>  <IC50>
< 100 nM

$$$$
>  <Compound>
COCCNC(=O)c1cccc2c1nc(Nc1cccc(Cl)c1)c1ccncc12

>  <IC50>
> 1100 nM

$$$$

Query: IC50; subject: "COc1ccc(Nc2nc3c(-c4nc[nH]n4)cccc3c3cnccc23)cc1" < 100 nM

Also check COC(=O)c1cccc2c1nc(Nc1ccccc1)c1ccncc12 [drawing 2272] > 1100 nM

Also check "C#Cc1cccc(Nc2nc3c(-c4nnc[nH]4)cccc3c3cnccc23)c1" < 100 nM

Also check "c1ccc(CNc2nc3c(-c4nc[nH]n4)cccc3c3cnccc23)nc1" < 500 nM

Also check "Fc1ccccc1Nc1nc2c(-c3nnc[nH]3)cccc2c2cnccc12" < 100 nM

Also check "N#Cc1cccc(Nc2nc3c(-c4nc[nH]n4)cccc3c3cnccc23)c1" < 100 nM

Also check "COCCNc1nc2c(-c3nc[nH]n3)cccc2c2cnccc12" < 100 nM

----------
# Experimental System: recombinant human CK2 (Homo sapiens (Human), UniProt P68400)
# Sequence (P68400 whole entry): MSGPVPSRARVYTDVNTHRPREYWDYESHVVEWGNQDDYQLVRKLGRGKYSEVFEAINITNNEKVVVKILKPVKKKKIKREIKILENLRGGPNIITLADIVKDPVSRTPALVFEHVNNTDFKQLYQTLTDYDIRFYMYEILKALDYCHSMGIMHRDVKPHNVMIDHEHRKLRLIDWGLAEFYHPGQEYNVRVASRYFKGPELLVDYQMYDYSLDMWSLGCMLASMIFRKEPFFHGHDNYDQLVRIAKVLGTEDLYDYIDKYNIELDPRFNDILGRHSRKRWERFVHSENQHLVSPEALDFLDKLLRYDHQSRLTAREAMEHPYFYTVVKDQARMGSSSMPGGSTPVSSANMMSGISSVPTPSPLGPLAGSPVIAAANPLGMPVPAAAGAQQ
# Sequence (P67870 whole entry partner): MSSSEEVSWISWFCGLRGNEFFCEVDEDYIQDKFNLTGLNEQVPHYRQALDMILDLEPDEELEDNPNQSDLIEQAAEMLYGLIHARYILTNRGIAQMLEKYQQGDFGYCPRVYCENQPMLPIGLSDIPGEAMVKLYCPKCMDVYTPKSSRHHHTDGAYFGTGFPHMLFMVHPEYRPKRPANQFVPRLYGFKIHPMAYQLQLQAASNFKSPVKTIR
# Measurement Notes: CK2 assay (cell-free, 33P-ATP filter plate)
# Type: biochemical
# Stated Conditions: read-out: CK2 % inhibition 5 uM, 5 uM
Recorded Metric: inhibition at 5 µM (%)

>  <Molecule>
c1ccc(Nc2nc3ccccc3c3sccc23)cc1 [drawing 588]

>  <Unit Of Measurement>
%

>  <Endpoint Value>
0

$$$$

1 = N#Cc1ccc2c(c1)nc(Cl)c1ccsc12 [drawing 587]
2 = CN(C)CCNc1nc2ccccc2c2sccc12 [drawing 589]
3 = O=C(O)c1ccc2c(c1)nc(N1CCOCC1)c1ccsc12 [drawing 590]
Rank descending by inhibition at 5 µM. Answer by listing the labels in the order asked for. 1, 3, 2
(1: 63%, 3: 28%, 2: 0%)

----------
# Experimental System: recombinant human PIM1 (Homo sapiens (Human))
# Measurement Notes: PIM-1 kinase activity in cell-free in vitro assay
# Type: biochemical
# Stated Conditions: 500 nM compound, cell-free assay; read-out: PIM-1: % inh 500 nM
Recorded Metric: inhibition at 0.5 µM (%)

P = Cc1nccn1CCNc1nc2cc(-c3nnn[nH]3)ccc2c2sccc12
Q = CNC(=O)c1ccc2c(c1)nc(Nc1cccc(C(F)(F)F)c1)c1nc(NC3CC3)ncc12
R = CCOc1cccc(Nc2ncc3c(n2)c(NC2CC2)nc2cc(C(=O)O)ccc23)c1
S = O=C(O)c1ccc2c(c1)nc(NC1CC1)c1nc(Nc3ccc(F)cc3)ncc12
Rank the 4 compounds shown above by inhibition at 0.5 µM, smallest number first. Answer by listing the labels in the order asked for. Q, R, S, P
(Q: 16.2%, R: 32.8%, S: 49.3%, P: 81.5%)

----------
# Experimental System: recombinant human PIM1 (Homo sapiens (Human))
# Measurement Notes: PIM-1 kinase activity in cell-free in vitro assay
# Type: biochemical
# Stated Conditions: cell-free assay
pIC50: −log10 of the molar value.
Recorded Metric: pIC50

Worked cases, answers included:
>  <Compound>
O=C(O)c1ccc2c(c1)nc(Nc1cccc(Cl)c1)c1cccnc12

>  <pIC50>
6.20

$$$$
>  <Compound>
O=C(O)c1ccc2c(c1)nc(Nc1cc(F)ccc1Br)c1ccncc12

>  <pIC50>
6.42

$$$$
>  <Compound>
C#Cc1cccc(Nc2nc3cc(C(=O)O)ccc3c3cnc(NC)nc23)c1

>  <pIC50>
6.18

$$$$
>  <Compound>
Cc1ccccc1Nc1ncc2c(n1)c(NC1CC1)nc1cc(C(=O)O)ccc12

>  <pIC50>
6.00

$$$$
>  <Compound>
CCc1cccc(Nc2nc3cc(C(=O)O)ccc3c3cnccc23)c1

>  <pIC50>
6.91

$$$$
>  <Compound>
O=C(O)c1ccc2c(c1)nc(NCCNc1ccccc1)c1ccncc12

>  <pIC50>
6.15

$$$$
>  <Compound>
CN1CCCCC1CNc1nc2cc(C(=O)O)ccc2c2sccc12 (centres unmarked)

>  <pIC50>
6.98

$$$$
>  <Compound>
CN(C)CCNc1nc2cc(-c3nnn[nH]3)ccc2c2cscc12

>  <pIC50>
7.06

$$$$

P = O=C(O)c1ccc2c(c1)nc(Nc1ccc(Br)cc1)c1ccncc12
Q = Fc1ccc(Nc2nc3cc(-c4nnn[nH]4)ccc3c3ccsc23)cc1
R = CCN(CC)CCNc1nc2cc(-c3nnn[nH]3)ccc2c2sccc12
Rank descending by pIC50. Answer by listing the labels in the order asked for. R, P, Q
(R: 6.90, P: 6.44, Q: 6.13)

1 = CNc1ncc2c(n1)c(NC1CC1)nc1cc(C(=O)O)ccc12
2 = Nc1ccc(CCNc2nc3cc(C(=O)O)ccc3c3cnccc23)cc1
# returns the entry with the larger pIC50; inputs 1 and 2 Lab note: record the label of whichever item you select. 2
(2: 6.49, 1: 6.27)

a = O=C(O)c1ccc2c(c1)nc(Nc1ccc(Br)cc1F)c1ccncc12
b = OCCNc1nc2cc(-c3nnn[nH]3)ccc2c2sccc12
Lowest pIC50? choose a or b Lab note: record the label of whichever item you select. a

1 = O=C(O)c1ccc2c(c1)nc(Nc1ccc3cn[nH]c3c1)c1ccncc12
2 = CON(C)c1nc2cc(C(=O)O)ccc2c2cnccc12
# returns the entry with the larger pIC50; inputs 1 and 2 Lab note: record the label of whichever item you select. 1
(1: 6.64, 2: 6.05)

Origin of measurements: patent US8168651B2
